# measurement target: SMARCA4 (Homo sapiens, UniProt P51532)
# Construct: SMARCA4-HiBiT knock-in Hela monoclonal cell (CS3023226) were purchased from Promega; host or cells: HeLa (CRISPR HiBiT knock-in monoclonal line, heterozygous)
# Sequence (P51532 whole entry): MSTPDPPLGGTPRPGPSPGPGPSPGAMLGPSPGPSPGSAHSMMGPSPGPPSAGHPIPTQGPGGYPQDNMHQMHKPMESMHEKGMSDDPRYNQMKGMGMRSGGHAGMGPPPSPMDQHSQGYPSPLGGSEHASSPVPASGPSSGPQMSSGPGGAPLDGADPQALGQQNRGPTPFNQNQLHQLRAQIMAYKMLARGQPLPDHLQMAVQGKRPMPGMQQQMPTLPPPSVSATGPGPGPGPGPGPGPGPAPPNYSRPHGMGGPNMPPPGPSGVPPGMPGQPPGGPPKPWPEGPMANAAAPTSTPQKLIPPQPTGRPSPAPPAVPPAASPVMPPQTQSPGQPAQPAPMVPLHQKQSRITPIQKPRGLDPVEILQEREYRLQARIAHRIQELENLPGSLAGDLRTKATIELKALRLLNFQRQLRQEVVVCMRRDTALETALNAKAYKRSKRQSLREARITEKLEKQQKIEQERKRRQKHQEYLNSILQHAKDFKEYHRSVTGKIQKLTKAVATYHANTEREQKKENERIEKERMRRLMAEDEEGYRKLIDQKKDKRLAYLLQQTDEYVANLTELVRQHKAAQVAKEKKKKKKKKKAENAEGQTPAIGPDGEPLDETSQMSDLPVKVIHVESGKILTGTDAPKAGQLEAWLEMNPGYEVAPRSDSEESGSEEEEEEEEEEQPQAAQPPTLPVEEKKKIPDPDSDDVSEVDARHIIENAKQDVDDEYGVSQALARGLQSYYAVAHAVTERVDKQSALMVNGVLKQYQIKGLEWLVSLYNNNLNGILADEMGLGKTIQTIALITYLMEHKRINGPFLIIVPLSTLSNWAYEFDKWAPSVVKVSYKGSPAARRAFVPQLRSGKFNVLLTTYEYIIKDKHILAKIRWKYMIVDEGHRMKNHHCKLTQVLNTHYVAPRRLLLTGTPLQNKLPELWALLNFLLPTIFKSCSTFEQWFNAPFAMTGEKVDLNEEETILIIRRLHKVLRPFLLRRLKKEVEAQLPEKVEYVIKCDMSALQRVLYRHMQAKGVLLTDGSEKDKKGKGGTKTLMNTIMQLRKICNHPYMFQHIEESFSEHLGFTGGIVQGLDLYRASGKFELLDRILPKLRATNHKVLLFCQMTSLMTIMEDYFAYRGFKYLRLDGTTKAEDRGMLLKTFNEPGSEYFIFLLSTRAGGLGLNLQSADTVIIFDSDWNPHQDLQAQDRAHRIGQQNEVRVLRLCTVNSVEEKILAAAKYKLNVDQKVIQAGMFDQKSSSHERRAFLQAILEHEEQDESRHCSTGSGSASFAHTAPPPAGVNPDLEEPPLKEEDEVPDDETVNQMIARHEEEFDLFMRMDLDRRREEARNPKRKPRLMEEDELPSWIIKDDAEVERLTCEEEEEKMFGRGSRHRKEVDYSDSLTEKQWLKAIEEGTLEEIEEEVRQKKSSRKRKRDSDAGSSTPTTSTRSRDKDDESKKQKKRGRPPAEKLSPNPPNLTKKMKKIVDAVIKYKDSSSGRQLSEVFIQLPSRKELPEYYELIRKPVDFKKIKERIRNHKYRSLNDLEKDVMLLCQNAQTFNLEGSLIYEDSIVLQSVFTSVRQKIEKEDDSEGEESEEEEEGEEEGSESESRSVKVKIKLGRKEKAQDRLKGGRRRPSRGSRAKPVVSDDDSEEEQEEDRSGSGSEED
# assay summary: SMARCA4 HiBiT degradation assay in HeLa cells
# Type: cell-based
# assay setup: HeLa, 18 hours
metric name: Dmax

# annotated cases, reported Dmax shown
{"molecule": "C[C@@H]1C[C@H](CN2CCN(c3ccc4c(c3)C(=O)N([C@H]3CCC(=O)NC3=O)C4)CC2)C[C@H](C)N1C(=O)N1CCN2c3cc(-c4cccc(F)c4O)nnc3NC[C@@]2(C(F)F)C1", "metric name": "Dmax", "observed result": "< 50%"}
{"molecule": "O=C1CCC(N2Cc3ccc(N4CCN(C[C@H]5CC[C@@H](CN6CCN7c8cc(-c9cc(F)cc(F)c9O)nnc8NC[C@H]7C6)CC5)CC4)cc3C2=O)C(=O)N1 (stereo partly drawn)", "metric name": "Dmax", "observed result": "> 75%"}

-- ask Request the reported Dmax associated with C[C@@H]1CN(CC2CCN(c3ccc4c(c3)C(=O)N(C3CCC(=O)NC3=O)C4)CC2)C[C@H](C)N1C(=O)N1CCN2c3cc(-c4cccc(F)c4O)nnc3NC[C@H]2C1 (stereo partly drawn)
-- reply < 50%

---

Listed next: entries and their corresponding DC50.
# measurement target: SMARCA4 (Homo sapiens)
# Construct: SMARCA4-HiBiT knock-in Hela monoclonal cell (CS3023226) were purchased from Promega; host or cells: HeLa (CRISPR HiBiT knock-in monoclonal line, heterozygous)
# assay summary: SMARCA4 HiBiT degradation assay in HeLa cells
# Format: cell-based
# assay setup: 18 hours

# annotated cases, reported DC50 shown
{"compound": "CC1(C)CN(CC2CCN(c3ccc4c(c3)C(=O)N(C3CCC(=O)NC3=O)C4)CC2)CCN1C(=O)N1CCN2c3cc(-c4cccc(F)c4O)nnc3NCC2(C)C1 (single isomer, unassigned) [Example 9]", "measurement target": "SMARCA4 (Homo sapiens)", "observed result": "< 100 nM"}
{"compound": "O=C1CCC(N2Cc3ccc(N4CCN(C[C@H]5CC[C@@H](CN6CCN7c8cc(-c9cc(F)cc(F)c9O)nnc8NC[C@H]7C6)CC5)CC4)cc3C2=O)C(=O)N1 (stereo partly shown)", "measurement target": "SMARCA4 (Homo sapiens)", "observed result": "< 100 nM"}
{"compound": "CC1(C)CN(CC2CCN(c3ccc4c(c3)C(=O)N([C@H]3CCC(=O)NC3=O)C4)CC2)CCN1C(=O)N1CCN2c3cc(-c4cccc(F)c4O)nnc3NCC2(CF)C1 (single isomer, unassigned) [Example 89]", "measurement target": "SMARCA4 (Homo sapiens)", "observed result": "100 to 1000 nM"}
{"compound": "CC1(C)CC(CN2CCN(c3ccc4c(c3)C(=O)N([C@H]3CCC(=O)NC3=O)C4)CC2)CCN1C(=O)N1CCN2c3cc(-c4cccc(F)c4O)nnc3NC[C@@]2(C(F)F)C1 (stereo partly shown)", "measurement target": "SMARCA4 (Homo sapiens)", "observed result": "100 to 1000 nM"}

-- ask Provide value of DC50 for this record tested with SMARCA4 (Homo sapiens): CC12CNc3nnc(-c4cccc(F)c4O)cc3N1CCN(C[C@H]1CC[C@H](CN3CCN(c4ccc5c(c4)C(=O)N(C4CCC(=O)NC4=O)C5)CC3)CC1)C2 (single isomer, unassigned) [Example 116]
-- reply < 100 nM

-- ask Query CCC1CN(CC2CCN(c3ccc4c(c3)C(=O)N(C3CCC(=O)NC3=O)C4)CC2)CCN1C(=O)N1CCN2c3cc(-c4cc(F)cc(F)c4O)nnc3NC[C@H]2C1 (mixture of isomers) next
-- reply < 100 nM
